Attribution: ChEMBL document CHEMBL3885861

species: Rattus norvegicus; assay: Open TG-GATES - Regimen: Daily Repeat; format: toxicity, organism-based, Sprague-Dawley; design: regimen Daily Repeat, gender Male, age 6 weeks; settings: in vivo, po, 0 mg/kg, […], tissue Liver, route gavage, dose level Control, time 7 day
Measured Quantity: LIVER (g)
Write it as a number; the unit g goes unstated.

// worked examples, LIVER included
CSc1ccc2c(c1)N(CCC1CCCCN1C)c1ccccc1S2 (stereo not given) [THIORIDAZINE]    13.4
C[C@H](CS)C(=O)N1CCC[C@H]1C(=O)O [CAPTOPRIL]    13
NC(=O)N1c2ccccc2C=Cc2ccccc21 [CARBAMAZEPINE]    12.2
O=C(O)c1cc(/N=N/c2ccc(S(=O)(=O)Nc3ccccn3)cc2)ccc1O [SULFASALAZINE]    12

Continue with the next compound.
Task item: Let me know recorded LIVER for COc1ccc(Cc2nccc3cc(OC)c(OC)cc23)cc1OC [PAPAVERINE] , thanks.
Reply: 12.1

====

organism: Rattus norvegicus; experiment: Open TG-GATES - Regimen: Single; format: toxicity, organism-based, Sprague-Dawley; parameters: regimen Single, gender Male, age 6 weeks; conditions: in vivo, po, 300 mg/kg, 24 h, tissue Kidney, route gavage, dose level Middle
KIDNEY_R: recorded values
Numbers only here, please. The scale is g.

Example entries begin here.
CCc1cc(C(N)=S)ccn1 [ETHIONAMIDE]    1.1
O=C(O)c1cn(C2CC2)c2cc(N3CCNCC3)c(F)cc2c1=O    0.9
C[C@H](CS)C(=O)N1CCC[C@H]1C(=O)O    1
O=C(O)c1cc(/N=N/c2ccc(S(=O)(=O)Nc3ccccn3)cc2)ccc1O    1

Lab note: next compound to report on.
Task item: Item "Clc1ccccc1CN1CCc2sccc2C1" : provide KIDNEY_R
Reply: 1

====

species: Rattus norvegicus; assay: Open TG-GATES - Regimen: Daily Repeat; type: toxicity, organism-based, Sprague-Dawley; design: regimen Daily Repeat, gender Male, age 6 weeks; settings: in vivo, po, 0 mg/kg, 72 h, tissue Blood, route gavage, dose level Control, time 3 day
Measured Quantity: Mono (%)
Express it in %; write the number only.

Worked cases, answers included:
Cn1c(=O)c2[nH]cnc2n(C)c1=O.O    3.2
CCCC(CCC)C(=O)O    3.4
NC(=O)N/N=C/c1ccc([N+](=O)[O-])o1    2.6
CSc1ccc2c(c1)N(CCC1CCCCN1C)c1ccccc1S2 (stereo not given)    8.4
CN(C)CCC=C1c2ccccc2CCc2ccccc21    3.4
CC(=O)Oc1ccccc1C(=O)O    2.4
COc1ccc(Cc2nccc3cc(OC)c(OC)cc23)cc1OC    2.2
COc1ccc2c(c1)c(CC(=O)O)c(C)n2C(=O)c1ccc(Cl)cc1    8
O=C(O)c1cn(C2CC2)c2cc(N3CCNCC3)c(F)cc2c1=O    7.6

Task item: Supply reported Mono belonging to this compound: "O=C(O)c1cc(/N=N/c2ccc(S(=O)(=O)Nc3ccccn3)cc2)ccc1O"
Reply: 3

====

# maps each entry to its KIDNEY_L
organism: Rattus norvegicus; test: Open TG-GATES - Regimen: Daily Repeat; type: toxicity, organism-based, Sprague-Dawley; parameters: regimen Daily Repeat, gender Male, age 6 weeks; conditions: in vivo, po, 0 mg/kg, […], tissue Kidney, route gavage, dose level Control, time 7 day
API: value field is a number in g; no unit string.

CN(C)CCC=C1c2ccccc2CCc2ccccc21    1
COc1ccc2c(c1)c(CC(=O)O)c(C)n2C(=O)c1ccc(Cl)cc1    1.2
C[C@H](CS)C(=O)N1CCC[C@H]1C(=O)O    1.1
O=C(O)c1cn(C2CC2)c2cc(N3CCNCC3)c(F)cc2c1=O    1.1

// switching to the query molecule
Task item: Determine from records and report KIDNEY_L for NC(=O)N1c2ccccc2C=Cc2ccccc21 [CARBAMAZEPINE]
Reply: 1.1
